- target: recombinant 17bHSD13 (N2-K300) (Homo sapiens (Human))
- Sequence (Q7Z5P4 2-300): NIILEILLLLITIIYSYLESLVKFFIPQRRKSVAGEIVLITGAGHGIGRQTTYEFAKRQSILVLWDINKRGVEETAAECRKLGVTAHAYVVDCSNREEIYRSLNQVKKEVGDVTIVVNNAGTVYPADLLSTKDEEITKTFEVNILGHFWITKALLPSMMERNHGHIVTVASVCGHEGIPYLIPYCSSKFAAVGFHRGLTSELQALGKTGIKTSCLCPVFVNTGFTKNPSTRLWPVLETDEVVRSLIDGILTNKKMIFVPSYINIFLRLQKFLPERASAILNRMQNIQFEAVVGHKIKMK
- measurement description: In Vitro 17bHSD13 Enzyme Assay
- reported conditions: 80 nM 17bHSD13, 0.5 mM NAD, 20 μM Estradiol, 2.5 h; estradiol to estrone by LC-MS/MS
pIC50: −log10 of the molar value.
Please mark 1.0 if the recorded pIC50 is equal to or greater than 7, and 0.0 if it falls below.

molecule="CN(C)C(=O)C1CCCN1C(=O)c1ccc(-c2cc(F)c(F)c(O)c2F)s1 (centres unmarked) [Example 105]" target="recombinant 17bHSD13 (N2-K300) (Homo sapiens (Human))" class_label=0.0

[ask] Kindly determine if pIC50 recorded for N#Cc1cccc(C2CN(C(=O)c3noc(-c4cc(F)c(F)c(O)c4F)n3)CCN2)c1 (centres unmarked) [Example 42] is above or exactly 7.
[reply] 0.0

[ask] Is pIC50 at least 7? Consider COc1cccc(N2CCN(C(=O)c3noc(-c4cc(F)c(F)c(O)c4F)n3)CC2)c1 [Example 61]
[reply] 1.0
